target: mGluR5 receptor (Sus scrofa, UniProt I3LUI7); construct: 450 μg of protein from brain homogenate are incubated with 5 nM^3[H]-MPEP; from tissue; host or cells: pig brain hemispheres without medulla, cerebellum and pons; assay: Affinity for the mGluR5 receptor: displacement of 3[H]-MPEP binding in pig brain homogenate; settings: 10 μM compound, 5 nM 3[H]-MPEP
Sequence (I3LUI7 19-1212): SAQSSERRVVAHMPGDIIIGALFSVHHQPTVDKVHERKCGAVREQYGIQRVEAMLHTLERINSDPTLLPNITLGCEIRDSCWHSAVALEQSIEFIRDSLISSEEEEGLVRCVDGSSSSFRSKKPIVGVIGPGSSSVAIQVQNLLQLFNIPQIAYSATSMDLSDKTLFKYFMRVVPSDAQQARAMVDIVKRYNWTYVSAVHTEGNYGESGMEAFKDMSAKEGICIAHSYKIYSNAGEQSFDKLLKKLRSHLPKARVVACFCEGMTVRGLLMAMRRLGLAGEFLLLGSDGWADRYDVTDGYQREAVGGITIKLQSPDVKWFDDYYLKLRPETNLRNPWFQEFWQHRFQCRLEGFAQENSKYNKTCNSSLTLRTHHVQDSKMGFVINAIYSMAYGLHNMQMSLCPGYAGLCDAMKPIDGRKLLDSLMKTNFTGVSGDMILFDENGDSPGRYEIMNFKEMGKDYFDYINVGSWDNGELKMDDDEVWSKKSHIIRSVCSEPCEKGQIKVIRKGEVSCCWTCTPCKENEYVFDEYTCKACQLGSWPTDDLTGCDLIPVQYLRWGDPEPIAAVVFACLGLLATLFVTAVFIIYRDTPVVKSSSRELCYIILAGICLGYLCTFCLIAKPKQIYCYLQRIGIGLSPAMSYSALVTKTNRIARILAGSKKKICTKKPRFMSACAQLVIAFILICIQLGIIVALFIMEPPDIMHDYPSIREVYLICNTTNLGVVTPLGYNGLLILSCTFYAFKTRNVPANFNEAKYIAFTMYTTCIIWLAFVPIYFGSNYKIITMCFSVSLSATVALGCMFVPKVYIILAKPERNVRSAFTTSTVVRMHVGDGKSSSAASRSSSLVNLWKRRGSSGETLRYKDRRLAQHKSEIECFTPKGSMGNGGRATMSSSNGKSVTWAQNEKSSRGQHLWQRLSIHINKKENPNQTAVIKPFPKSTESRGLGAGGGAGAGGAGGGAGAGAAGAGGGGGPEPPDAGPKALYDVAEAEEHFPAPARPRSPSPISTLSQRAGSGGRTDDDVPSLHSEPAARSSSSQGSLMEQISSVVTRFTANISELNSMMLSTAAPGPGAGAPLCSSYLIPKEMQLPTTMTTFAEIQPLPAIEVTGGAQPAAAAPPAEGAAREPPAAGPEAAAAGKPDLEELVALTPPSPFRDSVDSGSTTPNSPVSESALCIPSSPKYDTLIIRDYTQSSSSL
experimental-readout: mGluR5 receptor inhibition of the 3[H]-MPEP binding in % (10 μM) (%)

Give mGluR5 receptor inhibition of the 3[H]-MPEP binding in % (10 μM) for this entry on mGluR5 receptor (Sus scrofa, UniProt I3LUI7): `Cc1cc(C(=O)Nc2noc3ccc(Br)cc23)c(C)o1`
43.11

Fill in mGluR5 receptor inhibition of the 3[H]-MPEP binding in % (10 μM) for `CN(C)c1cccc2onc(NC(=O)c3cc4ccccc4s3)c12` tested with mGluR5 receptor (Sus scrofa, UniProt I3LUI7).
43.55

Please look at `Cc1cc(C(=O)Nc2noc3ccc(F)cc23)c(C)o1` and tell me its recorded mGluR5 receptor inhibition of the 3[H]-MPEP binding in % (10 μM) on mGluR5 receptor (Sus scrofa, UniProt I3LUI7).
36.88

---

target: mGluR5 receptor (Sus scrofa, UniProt I3LUI7); construct: 450 μg of protein from brain homogenate are incubated with 5 nM^3[H]-MPEP; from tissue; host or cells: pig brain hemispheres without medulla, cerebellum and pons; assay: Affinity for the mGluR5 receptor: displacement of 3[H]-MPEP binding in pig brain homogenate; conditions: 10 μM compound, 5 nM 3[H]-MPEP
experimental-readout: inhibition at 10 µM (%)

Input `COc1cccc2onc(NC(=O)c3ccccc3C(F)(F)F)c12` , output reported inhibition at 10 µM.
36.1

For the molecule `CC(C)(C)c1ccc(C(=O)Nc2noc3cc(Cl)ccc23)cc1` , report inhibition at 10 µM.
35.2

Using known records, supply inhibition at 10 µM for CCCCC(CC)C(=O)Nc1noc2cc(Cl)ccc12 (stereo not drawn)
35.1

Fill in reported inhibition at 10 µM for this entry: `Cc1ccccc1C(=O)Nc1noc2ccc(F)cc12`
35

Please give the documented inhibition at 10 µM of CCCC(C)C(=O)Nc1noc2ccc(C)cc12 (stereo not drawn)
34

Using the record for `COc1cccc2onc(NC(=O)c3ccccc3C)c12` , state its measured inhibition at 10 µM.
33.8

Provide only the value of recorded inhibition at 10 µM for `Cc1ccc2onc(NC(=O)c3ccccc3F)c2c1`
41

Look up and state reported inhibition at 10 µM for `COc1ccccc1C(=O)Nc1noc2c(F)cccc12`
32

Answer with the recorded inhibition at 10 µM of `O=C(Nc1noc2c(F)cccc12)c1ccccc1Cl` only.
35.4

Give the reported inhibition at 10 µM for this molecule. `O=C(Nc1noc2cccc(Cl)c12)c1ccccc1`
31.6

Report measured inhibition at 10 µM; entry is `Cc1ccc2onc(NC(=O)c3ccc(F)cc3F)c2c1`
43.2

Give the value of inhibition at 10 µM reported for the following: O=C(Nc1noc2ccccc12)c1cccnc1 [Example 90, N-benzo[d]isoxazol-3-ylnicotinamide]
50.3

Note inhibition at 10 µM for the molecule shown: `CCCc1ccc(C(=O)Nc2noc3cccc(OCc4ccc(C)cc4)c23)cc1`
32.2

Output inhibition at 10 µM of `CN(C)c1cccc2onc(NC(=O)c3ccc(Cl)c(Cl)c3)c12`
38

Entry `O=C(Nc1noc2cc(Cl)ccc12)c1cc(F)c(Cl)cc1Cl` needs its inhibition at 10 µM filled in; supply it.
43

---

molecular target: mGluR5 receptor (Sus scrofa, UniProt I3LUI7); construct: 450 μg of protein from brain homogenate are incubated with 5 nM^3[H]-MPEP; from tissue; host or cells: pig brain hemispheres without medulla, cerebellum and pons; experiment: Affinity for the mGluR5 receptor: displacement of 3[H]-MPEP binding in pig brain homogenate; settings: 10 μM compound, 5 nM 3[H]-MPEP
experimental-readout: inhibition at 10 µM (%)

Here are 10 compounds together with their reported answers.
Fill in inhibition at 10 µM for record CCC(C(=O)Nc1noc2ccc(C)cc12)c1ccccc1 (stereo not shown)
43.5

Give reported inhibition at 10 µM value for `O=C(Nc1noc2cc(Br)ccc12)c1ccccc1Cl`
37.5

Give inhibition at 10 µM for the following compound: `O=C(Nc1noc2cc(Cl)ccc12)c1ccc(F)cc1C(F)(F)F`
36

Query inhibition at 10 µM for `O=C(Nc1noc2cc(Br)ccc12)c1ccc(Cl)c(Cl)c1`
35.8

Output measured inhibition at 10 µM for this item: `O=C(Nc1noc2cc(Br)ccc12)c1ccc(F)c(F)c1`
36.9

Query inhibition at 10 µM for `CC(C)(C)CC(=O)Nc1noc2cccc(OCC(F)(F)F)c12`
33.4

Please list inhibition at 10 µM recorded for the compound `O=C(Nc1noc2ccccc12)c1c(F)ccc(F)c1F`
51.1

Indicate its recorded inhibition at 10 µM; the compound in question is `O=C(Nc1noc2cccc(OCC(F)(F)F)c12)c1ccc(F)c(F)c1`
42

Supply recorded inhibition at 10 µM for `Cc1ccc2onc(NC(=O)c3ccc(Br)cc3)c2c1` here.
37.9

Note down inhibition at 10 µM recorded for `O=C(Nc1noc2ccc(F)cc12)c1ccc(F)cc1F`
53.8

[P] CCCCC(CC)C(=O)Nc1noc2cccc(OC)c12 (stereo not shown)
[Q] CCCCC(CC)C(=O)Nc1noc2ccccc12 (stereo not shown)
Select one. Lower inhibition at 10 µM: P or Q Answer by stating the label of the chosen item.
P
(P: 43.2%, Q: 63.2%)

[a] CCC(C)C(=O)Nc1noc2cccc(OC)c12 (stereo not shown)
[b] O=C(Nc1noc2ccccc12)c1c(F)cccc1F
// select label with min value of measured inhibition at 10 µM from [ a , b ] Select an item and report its label.
b
(b: 37%, a: 54%)

---

biological target: mGluR5 receptor (Sus scrofa, UniProt I3LUI7); construct: 450 μg of protein from brain homogenate are incubated with 5 nM^3[H]-MPEP; from tissue; host or cells: pig brain hemispheres without medulla, cerebellum and pons; assay: Affinity for the mGluR5 receptor: displacement of 3[H]-MPEP binding in pig brain homogenate; settings: 10 μM compound, 5 nM 3[H]-MPEP
experimental-readout: inhibition at 10 µM (%)

Write inhibition at 10 µM of CC(C)(C)c1ccc(C(=O)Nc2noc3ccc(F)cc23)cc1 [Example 104] ; system used: mGluR5 receptor (Sus scrofa, UniProt I3LUI7)
44.6

Provide inhibition at 10 µM, system mGluR5 receptor (Sus scrofa, UniProt I3LUI7), entry COc1cccc2onc(NC(=O)c3ccccc3Cl)c12 [Example 157]
32.4

System mGluR5 receptor (Sus scrofa, UniProt I3LUI7). Read-out inhibition at 10 µM. Item O=C(Nc1noc2c(F)cccc12)c1ccccc1 [Example 95] . Report value.
45.8

For mGluR5 receptor (Sus scrofa, UniProt I3LUI7), give inhibition at 10 µM of the listed molecule: CC(C)(C)CC(=O)Nc1noc2cc(Br)ccc12 [Example 117]
30.8

# lookup: mGluR5 receptor (Sus scrofa, UniProt I3LUI7) inhibition at 10 µM, key = Cc1ccc(COc2cccc3onc(NC(=O)c4cccc([N+](=O)[O-])c4)c23)cc1 [Example 167]
39.7

The values you see were collected from patent US20080312301A1.
